# measured target: Recombinant human JAK1 catalytic domain (Homo sapiens (Human), UniProt P23458)
# Sequence (P23458 850-1154): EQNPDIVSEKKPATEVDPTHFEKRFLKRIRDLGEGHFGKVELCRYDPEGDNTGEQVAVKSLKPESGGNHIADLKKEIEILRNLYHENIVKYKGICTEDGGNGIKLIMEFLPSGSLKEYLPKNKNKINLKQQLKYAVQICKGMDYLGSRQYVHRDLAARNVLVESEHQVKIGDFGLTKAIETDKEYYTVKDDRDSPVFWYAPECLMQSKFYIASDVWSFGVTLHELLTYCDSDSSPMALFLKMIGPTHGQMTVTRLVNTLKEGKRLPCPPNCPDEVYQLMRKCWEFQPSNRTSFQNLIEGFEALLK
# assay summary: JAK1 inhibition assay
# Assay type: biochemical
# condition set: semi-quantitative score
# Description: Plates were washed 6 times with 300 μL per well of a 75 mM phosphoric acid solution and the bottom of the plates was sealed. 40 μL/well of Microscint-20 was added, the top of the plates was sealed and readout was performed using the Topcount (Perkin Elmer). Kinase activity was calculated by subtracting counts per minute (cpm) obtained in the presence of a positive control inhibitor (10 μM staurosporine) from cpm obtained in the presence of vehicle. […]
assay metric: IC50

Observe how each entry below is paired with its result.
                           molecular_string         result
0  O=C(Nc1nc2cccc(-c3ccc(OCc4ccc(N5CCOCC5)nc4)cc3)n2n1)C1CC1  101 to 500 nM
1  O=C(Nc1nc2cccc(-c3ccc(CNc4ccc(Cl)cc4F)cc3)n2n1)C1CC1       < 100 nM
2  O=C(Nc1nc2cccc(-c3cnc(N4CCCCC4)nc3)n2n1)C1CC1      > 1000 nM

input: Tell me the measured IC50 of Cc1cc(CN(C)Cc2ccc(-c3cccc4nc(NC(=O)C5CC5)nn34)cc2)nn1C , please.
output: 101 to 500 nM

* * *

# measured target: Recombinant human JAK3 catalytic domain (Homo sapiens (Human))
# Sequence (P52333 781-1124): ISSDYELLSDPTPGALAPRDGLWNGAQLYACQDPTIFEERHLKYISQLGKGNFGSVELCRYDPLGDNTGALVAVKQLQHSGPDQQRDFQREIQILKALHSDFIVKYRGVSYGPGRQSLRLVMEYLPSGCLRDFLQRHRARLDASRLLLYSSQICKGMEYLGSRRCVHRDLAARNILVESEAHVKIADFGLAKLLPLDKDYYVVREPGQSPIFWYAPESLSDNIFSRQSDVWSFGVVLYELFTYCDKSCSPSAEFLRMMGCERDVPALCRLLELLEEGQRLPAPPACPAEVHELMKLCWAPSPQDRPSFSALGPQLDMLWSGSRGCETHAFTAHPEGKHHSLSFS
# assay summary: JAK3 inhibition assay
# Assay type: biochemical
# condition set: semi-quantitative score
assay metric: IC50

Observe how each entry below is paired with its result.
                           molecular_string                           measured_target  assay_metric         result
0  CC1(C)CN(C(=O)c2ccc(-c3cccc4nc(NC(=O)C5CC5)nn34)cc2)C1  Recombinant human JAK3 catalytic domain (Homo sapiens (Human))          IC50  101 to 500 nM
1  O=C(Nc1nc2cccc(-c3ccc(Oc4ccccc4)cc3)n2n1)C1CC1  Recombinant human JAK3 catalytic domain (Homo sapiens (Human))          IC50      > 1000 nM
2  O=C(Nc1nc2cccc(-c3cnn(Cc4ccccc4)c3)n2n1)C1CC1  Recombinant human JAK3 catalytic domain (Homo sapiens (Human))          IC50      > 1000 nM

Kindly consider the entry below.
input: Tell me the measured IC50 of Cc1cc(COc2ccc(-c3cccc4nc(NC(=O)C5CC5)nn34)cc2)no1 , please.
output: 501 to 1000 nM

* * *

# measured target: Recombinant human JAK2 catalytic domain (Homo sapiens (Human))
# Sequence (O60674 808-1132): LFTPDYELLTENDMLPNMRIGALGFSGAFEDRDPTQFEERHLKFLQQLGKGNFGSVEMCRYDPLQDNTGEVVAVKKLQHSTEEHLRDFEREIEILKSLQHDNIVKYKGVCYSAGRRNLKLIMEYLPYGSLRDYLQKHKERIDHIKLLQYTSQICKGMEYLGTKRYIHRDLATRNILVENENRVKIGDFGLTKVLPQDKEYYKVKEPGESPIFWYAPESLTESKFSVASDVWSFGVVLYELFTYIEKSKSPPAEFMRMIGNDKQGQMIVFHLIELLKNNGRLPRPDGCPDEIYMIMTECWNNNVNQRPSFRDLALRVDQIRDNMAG
# assay summary: JAK2 inhibition assay
# Assay type: biochemical
# condition set: semi-quantitative score
assay metric: IC50

Observe how each entry below is paired with its result.
>>> print(df.to_string())
                                   molecule  assay_metric         result
0  O=C(NCc1cccc(F)c1)c1ccc(-c2cccc3nc(NC(=O)C4CC4)nn23)cc1 [Compound 29]          IC50  101 to 500 nM
1  O=C(Nc1nc2cccc(-c3ccc(C(=O)N4CCCC(C(=O)N5CCCCC5)C4)cc3)n2n1)C1CC1 (centres unmarked) [Compound 290]          IC50      > 1000 nM
2  CC1CN(C(=O)c2ccc(-c3cccc4nc(NC(=O)C5CC5)nn34)cc2)CC(C)O1 (centres unmarked) [Compound 215]          IC50  101 to 500 nM

For each listed entry, give its IC50.
1. O=C(Nc1nc2cccc(-c3ccc(C(=O)N4CCCC(CO)C4)cc3)n2n1)C1CC1 (centres unmarked) [Compound 276]
2. O=C(Nc1nc2cccc(-c3ccc(CN4CCC(CO)CC4)cc3)n2n1)C1CC1 [Compound 250]
3. O=C(NCCc1ccccc1)c1ccc(-c2cccc3nc(NC(=O)C4CC4)nn23)cc1 [Compound 87]
4. CN(C)CC1CN(Cc2ccc(-c3cccc4nc(NC(=O)C5CC5)nn34)cc2)C1 [Compound 298]
5. O=C(NC1CCCCC1)c1ccc(-c2cccc3nc(NC(=O)C4CC4)nn23)cc1 [Compound 26]

output:
["101 to 500 nM", "501 to 1000 nM", "< 100 nM", "> 1000 nM", "101 to 500 nM"]
